Assay type: in vivo, healthy adults (human)
Details: human, plasma, oral, 240 mg
measurement kind: Tmax (h)
Give the value, in units of h, as a plain number.

I am curious: what Tmax value has been reported for CN(C)c1cc(CNCC(C)(C)C)c(O)c2c1C[C@H]1C[C@H]3[C@H](N(C)C)C(O)=C(C(N)=O)C(=O)[C@@]3(O)C(O)=C1C2=O ? 2.8

---

Format: in vivo, healthy adults (human)
Conditions: human, plasma, oral, 300 mg
measurement kind: Cmax (ng/mL)
Give the value, in units of ng/mL, as a plain number.

I am curious: what Cmax value has been reported for CN(C)c1cc(CNCC(C)(C)C)c(O)c2c1C[C@H]1C[C@H]3[C@H](N(C)C)C(O)=C(C(N)=O)C(=O)[C@@]3(O)C(O)=C1C2=O ? 534

---

Format: in vivo, healthy adults (human)
Conditions: human, plasma, oral, AUC0–t, geometric LS mean, Period 2: omadacycline with verapamil; linear mixed-effect model, N = 10
measurement kind: AUC(0-t) (µg·h/mL)
Give the value, in units of µg·h/mL, as a plain number.

I am curious: what AUC(0-t) value has been reported for CN(C)c1cc(CNCC(C)(C)C)c(O)c2c1C[C@H]1C[C@H]3[C@H](N(C)C)C(O)=C(C(N)=O)C(=O)[C@@]3(O)C(O)=C1C2=O ? 7.34

---

Format: in vivo, healthy adults (human)
Conditions: human, plasma, oral, AUC0–24, geometric LS mean, Period 2: omadacycline with verapamil; linear mixed-effect model, N = 10
measurement kind: AUC(0-t)
Give the value; after it, write the unit.

I am curious: what AUC(0-t) value has been reported for CN(C)c1cc(CNCC(C)(C)C)c(O)c2c1C[C@H]1C[C@H]3[C@H](N(C)C)C(O)=C(C(N)=O)C(=O)[C@@]3(O)C(O)=C1C2=O ? 7340 ng·h/mL

---

System: P-gp
Format: in vivo, healthy adults (human)
Conditions: human, not told, po
measurement kind: bioavailability

I am curious: what bioavailability value has been reported for CN(C)c1cc(CNCC(C)(C)C)c(O)c2c1C[C@H]1C[C@H]3[C@H](N(C)C)C(O)=C(C(N)=O)C(=O)[C@@]3(O)C(O)=C1C2=O [Omadacycline] ? ~43.1%

---

Format: in vivo, healthy adults (human)
Conditions: human, plasma, oral, 240 mg
measurement kind: AUC(0-inf) (ng·h/mL)
Give the value, in units of ng·h/mL, as a plain number.

I am curious: what AUC(0-inf) value has been reported for CN(C)c1cc(CNCC(C)(C)C)c(O)c2c1C[C@H]1C[C@H]3[C@H](N(C)C)C(O)=C(C(N)=O)C(=O)[C@@]3(O)C(O)=C1C2=O ? 10800
